- ASSAY SYSTEM: T1, baboon EL (baboon)
- T1 construct: Heparin extract
- TEST: Biacore; EL captured by anti-C2-tag Ab; bivalent fit
Kd reference
All answers are understood in nM, so give the number only.

INSERT INTO measurements (binder, readout_units, recorded_result) VALUES
  ('53A11 (antibody, mouse IgG2a, V domains shown, mouse IgG2a from hybridoma; also called 53A11 (mouse mAb)) VH: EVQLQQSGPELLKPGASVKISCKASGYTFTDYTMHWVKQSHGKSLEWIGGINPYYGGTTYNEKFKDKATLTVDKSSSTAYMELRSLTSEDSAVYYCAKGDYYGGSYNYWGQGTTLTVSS VL: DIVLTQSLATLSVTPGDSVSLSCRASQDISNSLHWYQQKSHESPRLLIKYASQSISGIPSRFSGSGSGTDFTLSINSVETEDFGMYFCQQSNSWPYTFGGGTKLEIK', 'nM', 1.6);

Req: State the recorded Kd for this entry: 14A1 (antibody, mouse IgG1, V domains shown, mouse IgG1 from hybridoma) VH: QIQLVQSGPELKKPGETVKISCKASGYTFTNYGMNWVKQAPGKGLKWMGWINTYSGVPTYADDFKGRFAFSLETSASTAYLQINNFKNEDTATYFCARFSYYGRHYFDYWGQGTALTASS VL: DIVLTQSPASLAVSLGQRATISCKASQSVDYDGDSYMNWYQQKPGQPPKLLIYAASNLKSGIPARFSGSGSGTDFTLNIHPVEEEDAATYYCQQTTDDPPWTFGGGTKLEIK
Resp: 3.3

Req: State the recorded Kd for this entry: 23H8 (antibody, mouse IgG2a, V domains shown, mouse IgG2a from hybridoma; also called 23H8 (mouse mAb)) VH: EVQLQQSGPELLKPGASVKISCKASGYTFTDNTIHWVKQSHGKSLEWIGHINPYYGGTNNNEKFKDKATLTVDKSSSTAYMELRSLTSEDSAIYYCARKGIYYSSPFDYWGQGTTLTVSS VL: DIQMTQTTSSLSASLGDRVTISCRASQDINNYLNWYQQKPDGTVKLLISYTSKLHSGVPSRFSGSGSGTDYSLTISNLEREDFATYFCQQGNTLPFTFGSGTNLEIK
Resp: 2.9
